Attribution: patent US10377783B2

Test system: primary rat renal proximal tubule epithelial cells (RPTECs)
assayOverview: In vitro toxicity, MTT assay
Type: cell-based
experimentalSetup: 10 hr treatment, rat RPTECs, MTT; read-out: Inhibitory concentration IC50
reportedMetric: pIC50
Answers are plain numbers, as −log10 of the molar value.

Past entries and their recorded results:
{"columns": ["compound", "reportedMetric", "observed"],
 "data": [
  ["CC1=NCCNCCNCCN=C(C)c2cccc1n2.O.O.O.[Cl-].[Cl-].[Cl-].[Gd+3] [Compound 7, [GdL1Cl3].3H2O]", "pIC50", 2.07],
  ["CC1=NCCOCCOCCN=C(C)c2cccc1n2.O.O.[Cl-].[Cl-].[Mn+2] [Compound 2, [MnL2Cl2].2H2O]", "pIC50", 1.83]
]}

Entry CC1=Nc2ccccc2OCCOCCOc2ccccc2N=C(C)c2cccc1n2.O.O.[Cl-].[Cl-].[Mn+2] [Compound 5, [MnL6Cl2].2H2O] has what pIC50? 2.86
